- Assay Name: Cmax in rat at 10 mg/kg administered via oral gavage by LC/MS/MS analysis
- Assay type: ADME, organism-based
- Design: dose 10 mg/kg, route oral
- Condition Details: in vivo
Metric: Cmax (ng/mL)
Give the quantity in ng/mL, number only.

// query Cmax value for entry COc1cc(CCN(C)C)c(C)cc1Nc1ncc(Cl)c(Nc2ccccc2S(=O)(=O)C(C)C)n1
263

* * *

Below, each entry is listed alongside its reported half-life.
- Assay Name: Half life in rat at 10 mg/kg administered via oral gavage by LC/MS/MS analysis
- Format: ADME, organism-based
- Condition Details: in vivo
Write the number in h without appending the unit.

Cc1cc(Nc2ncc(Cl)c(Nc3ccccc3S(=O)(=O)C(C)C)n2)c(OC(C)C)cc1C1CCNCC1 : 10.3

Now look at this entry.
What half-life value was documented for this molecule, COc1cc(CCN(C)C)c(C)cc1Nc1ncc(Cl)c(Nc2ccccc2S(=O)(=O)C(C)C)n1 ?
7.48

* * *

- Assay Name: AUC (infinity) in rat at 10 mg/kg administered via oral gavage by LC/MS/MS analysis
- Format: ADME, organism-based
- Set-up: dose 10 mg/kg, time infinity, route oral
- Condition Details: in vivo
Listed here are compounds together with their documented AUC(0-inf).
Just the number please, in ng·h/mL, no unit attached.

Cc1cc(Nc2ncc(Cl)c(Nc3ccccc3S(=O)(=O)C(C)C)n2)c(OC(C)C)cc1C1CCNCC1 [CERITINIB] : 2650

Here's the next entry for you.
Report AUC(0-inf) for COc1cc(CCN(C)C)c(C)cc1Nc1ncc(Cl)c(Nc2ccccc2S(=O)(=O)C(C)C)n1 please.
4250

* * *

- System: ALK tyrosine kinase receptor (Homo sapiens, UniProt Q9UM73, F1174L)
- Sequence (Q9UM73 19-1620 F1174L limits assumed): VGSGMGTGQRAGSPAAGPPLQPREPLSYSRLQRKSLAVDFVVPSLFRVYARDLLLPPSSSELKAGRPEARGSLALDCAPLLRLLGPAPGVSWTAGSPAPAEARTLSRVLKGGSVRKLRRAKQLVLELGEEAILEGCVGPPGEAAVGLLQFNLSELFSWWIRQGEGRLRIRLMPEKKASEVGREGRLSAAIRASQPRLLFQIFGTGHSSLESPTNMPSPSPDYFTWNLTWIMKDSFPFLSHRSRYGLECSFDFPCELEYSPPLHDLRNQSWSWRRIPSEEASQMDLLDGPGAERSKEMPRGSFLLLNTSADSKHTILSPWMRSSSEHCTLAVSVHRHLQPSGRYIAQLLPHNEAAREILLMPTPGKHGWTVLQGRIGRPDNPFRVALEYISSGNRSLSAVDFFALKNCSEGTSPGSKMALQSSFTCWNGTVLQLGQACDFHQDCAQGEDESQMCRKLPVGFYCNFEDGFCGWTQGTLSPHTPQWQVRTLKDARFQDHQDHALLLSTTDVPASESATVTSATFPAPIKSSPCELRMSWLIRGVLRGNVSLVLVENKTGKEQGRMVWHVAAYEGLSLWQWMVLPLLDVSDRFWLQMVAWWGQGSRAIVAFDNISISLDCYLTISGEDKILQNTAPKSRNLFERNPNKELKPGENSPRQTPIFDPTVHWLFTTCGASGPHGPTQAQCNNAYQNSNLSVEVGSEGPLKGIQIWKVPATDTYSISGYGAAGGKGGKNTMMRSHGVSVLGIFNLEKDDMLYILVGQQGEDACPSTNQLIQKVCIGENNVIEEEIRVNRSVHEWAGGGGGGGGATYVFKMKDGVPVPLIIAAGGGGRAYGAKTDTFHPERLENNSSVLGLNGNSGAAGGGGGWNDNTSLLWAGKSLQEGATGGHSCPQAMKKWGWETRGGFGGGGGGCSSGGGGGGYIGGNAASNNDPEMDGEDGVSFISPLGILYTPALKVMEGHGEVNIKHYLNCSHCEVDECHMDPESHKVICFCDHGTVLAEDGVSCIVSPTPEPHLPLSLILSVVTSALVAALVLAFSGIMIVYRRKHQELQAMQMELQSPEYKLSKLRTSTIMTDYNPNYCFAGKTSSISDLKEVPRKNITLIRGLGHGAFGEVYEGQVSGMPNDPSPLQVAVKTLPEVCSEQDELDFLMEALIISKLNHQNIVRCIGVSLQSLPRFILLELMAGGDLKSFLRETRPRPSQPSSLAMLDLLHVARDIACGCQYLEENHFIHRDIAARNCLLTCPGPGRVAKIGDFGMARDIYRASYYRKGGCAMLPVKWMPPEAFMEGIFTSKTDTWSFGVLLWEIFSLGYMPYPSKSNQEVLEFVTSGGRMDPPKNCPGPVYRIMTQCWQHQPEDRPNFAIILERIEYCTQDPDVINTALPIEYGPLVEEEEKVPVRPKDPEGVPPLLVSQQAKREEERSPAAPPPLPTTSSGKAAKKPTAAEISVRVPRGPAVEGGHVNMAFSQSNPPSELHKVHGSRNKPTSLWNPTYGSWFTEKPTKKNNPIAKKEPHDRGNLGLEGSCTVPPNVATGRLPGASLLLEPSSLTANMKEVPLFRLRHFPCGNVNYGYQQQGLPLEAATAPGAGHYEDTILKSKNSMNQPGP
- Assay Name: Inhibition of ALK F1174L mutant (unknown origin) using peptide as substrate measured after 30 mins by fluorescence assay
Metric: pIC50
Formally, pIC50 is defined as -log10 of the concentration c, with c in mol/L.

Notebook: pull reported pIC50 for ALK tyrosine kinase receptor (Homo sapiens, UniProt Q9UM73, F1174L), entry COc1cc(CCN(C)C)c(C)cc1Nc1ncc(Cl)c(Nc2ccccc2S(=O)(=O)C(C)C)n1
9.25

* * *

- System: ALK tyrosine kinase receptor (Homo sapiens, UniProt Q9UM73, G1202R)
- Sequence (Q9UM73 19-1620 G1202R limits assumed): as the sequence (Q9UM73 19-1620 F1174L limits assumed) above, with L1156F, G1184R counted along it
- Assay Name: Inhibition of ALK G1202R mutant (unknown origin) using peptide as substrate measured after 30 mins by fluorescence assay
Metric: pIC50
Here pIC50 is given on a logarithmic scale as minus log10 of the concentration in mol/L.

Entry COc1cc(CCN(C)C)c(C)cc1Nc1ncc(Cl)c(Nc2ccccc2S(=O)(=O)C(C)C)n1 : reported pIC50 = ?
8.74

* * *

- Assay Name: AUCt in rat at 10 mg/kg administered via oral gavage by LC/MS/MS analysis
- Assay type: ADME, organism-based
- Condition Details: in vivo
Metric: AUC(0-t) (ng·h/mL)
Could you give me the number in ng·h/mL? Just the number is fine.

Cc1cc(Nc2ncc(Cl)c(Nc3ccccc3S(=O)(=O)C(C)C)n2)c(OC(C)C)cc1C1CCNCC1 : 1380

Which value of AUC(0-t) has been reported for COc1cc(CCN(C)C)c(C)cc1Nc1ncc(Cl)c(Nc2ccccc2S(=O)(=O)C(C)C)n1 in the records?
3750

* * *

Measured CC50 on ALK tyrosine kinase receptor (Homo sapiens) follows.
Numeric answer only, unit nM assumed.

Here is how some molecules turned out for CC50.
COc1cc(C(C)(C)CNC=O)c(C)cc1Nc1ncc(Cl)c(Nc2ccccc2S(=O)(=O)C(C)C)n1 : 63
CNCc1cc(OC)c(Nc2ncc(Cl)c(Nc3ccccc3S(=O)(=O)C(C)C)n2)cc1C : 25
COc1cc(C(C)(C)N)c(C)cc1Nc1ncc(Cl)c(Nc2ccccc2S(=O)(=O)C(C)C)n1 : 12
CNCCc1cc(OC)c(Nc2ncc(Cl)c(Nc3ccccc3S(=O)(=O)C(C)C)n2)cc1C : 20
COc1cc(C(C)(C)C#N)c(C)cc1Nc1ncc(Cl)c(Nc2ccccc2S(=O)(=O)C(C)C)n1 : 250

Item under review: COc1cc(C(C)(C)NC=O)c(C)cc1Nc1ncc(Cl)c(Nc2ccccc2S(=O)(=O)C(C)C)n1 . Reported CC50?
52

Which measured CC50 value corresponds to CNCC(C)(C)c1cc(OC)c(Nc2ncc(Cl)c(Nc3ccccc3S(=O)(=O)C(C)C)n2)cc1C ?
41

Param item = COc1cc(CCN)c(C)cc1Nc1ncc(Cl)c(Nc2ccccc2S(=O)(=O)C(C)C)n1 ; retrieve measured CC50.
60

// query CC50 value for entry COc1cc(CCN(C)C)c(C)cc1Nc1ncc(Cl)c(Nc2ccccc2S(=O)(=O)C(C)C)n1
13

* * *

As shown below, each of these compounds has a reported CC50 value.
- System: ALK tyrosine kinase receptor (Homo sapiens)
I'd appreciate it if you included the unit after the number.

# example entries with known answers
CNC(C)(C)c1cc(OC)c(Nc2ncc(Cl)c(Nc3ccccc3S(=O)(=O)C(C)C)n2)cc1C : 0.029 µM
COc1cc(CC#N)c(C)cc1Nc1ncc(Cl)c(Nc2ccccc2S(=O)(=O)C(C)C)n1 : 0.074 µM
COc1cc(C(C)(C)CN)c(C)cc1Nc1ncc(Cl)c(Nc2ccccc2S(=O)(=O)C(C)C)n1 : 0.053 µM
COc1cc(C(C)(C)CN(C)C)c(C)cc1Nc1ncc(Cl)c(Nc2ccccc2S(=O)(=O)C(C)C)n1 : 0.026 µM
COc1cc(CCNC=O)c(C)cc1Nc1ncc(Cl)c(Nc2ccccc2S(=O)(=O)C(C)C)n1 : 0.068 µM
COc1cc(CN(C)C)c(C)cc1Nc1ncc(Cl)c(Nc2ccccc2S(=O)(=O)C(C)C)n1 : 0.037 µM

Shifting focus to the compound that follows.
Form field - read-out: CC50; system: ALK tyrosine kinase receptor (Homo sapiens); submitted item: COc1cc(C(C)(C)N(C)C)c(C)cc1Nc1ncc(Cl)c(Nc2ccccc2S(=O)(=O)C(C)C)n1
0.035 µM
